System: rabbit anti-B. anthracis spore polyclonal IgG antibodies
Format: binding
Property Name: antibody reactivity detected by glycan arrays

>>> measured_result("COC(=O)CCCCCO[C@@H]1O[C@@H](C)[C@H](O)[C@@H](O[C@@H]2O[C@H](C)[C@@H](NC(=O)CC(C)(C)O)[C@H](O)[C@H]2OC)[C@H]1O [Saccharide 2]")
"marginally reactive"
>>> measured_result("COC(=O)CCCCCO[C@@H]1O[C@H](C)[C@@H](NC(=O)CC(C)(C)O)[C@H](O)[C@H]1OC [Saccharide 1]")
"marginally reactive"
